Entries and their measured activity at 150000 µM follow.
- ASSAYED_SYSTEM: BFP-aq, luciferase with fluorescence activity derived from aequorin (recombinant apoaequorin, SEQ ID NO: 1 with N-terminal Val replaced by Ala-Asn-Ser; complex with coelenteramide and calcium ions) (Aequorea victoria, UniProt P02592)
- Construct: The recombinant apoaequorins encoded by piP-HE is composed of 191 amino acids, whose N-terminus starts from Ala-Asn-Ser-; made in house; host or cells: E. coli strain WA802 (expression vector piP-HE)
- Sequence (P02592 with tags, fused parts or gaps): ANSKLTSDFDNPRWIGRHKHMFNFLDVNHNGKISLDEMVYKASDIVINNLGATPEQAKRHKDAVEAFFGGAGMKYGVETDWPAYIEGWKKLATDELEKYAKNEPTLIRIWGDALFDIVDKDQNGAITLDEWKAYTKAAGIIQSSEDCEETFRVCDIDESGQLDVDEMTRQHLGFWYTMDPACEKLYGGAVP
- PROCEDURE_TEXT: Enhancing effect of organic compounds on BFP-aq luminescence with coelenterazine as substrate (Table 4)
- Assay type: biochemical
- PARTICULARS: 150 mM compound, pH 8.0, 25° C., no addition = 100%, read-out: Luminescence activity, initial velocity

QUERY: May I ask what activity at 150000 µM has been recorded for "NCC(=O)O" ?
RESULT: 78%

---

Reported activity at 150000 µM values follow for various compounds
- ASSAYED_SYSTEM: BFP-aq, luciferase with fluorescence activity derived from aequorin (recombinant apoaequorin, SEQ ID NO: 1 with N-terminal Val replaced by Ala-Asn-Ser; complex with coelenteramide and calcium ions) (Aequorea victoria)
- Construct: The recombinant apoaequorins encoded by piP-HE is composed of 191 amino acids, whose N-terminus starts from Ala-Asn-Ser-; made in house; host or cells: E. coli strain WA802 (expression vector piP-HE)
- PROCEDURE_TEXT: Enhancing effect of organic compounds on BFP-aq luminescence with coelenterazine as substrate (Table 4)
- Type: biochemical
- PARTICULARS: 150 mM compound, pH 8.0, 25° C., no addition = 100%, read-out: Luminescence activity, initial velocity
Structures can show the parent of a compound that is named as a salt.
The figure you give is taken to be in %; do not add the unit.

A selection of reference data follows.
{"COMPOUND": "N=C(N)N [Guanidine/hydrochloride]", "ASSAY_VALUE": 226}
{"COMPOUND": "CC(N)=O [Acetamide/hydrochloride]", "ASSAY_VALUE": 44}

Let us examine a further case.
QUERY: Which value of activity at 150000 µM has been reported for NC(N)=O [Urea] in the records?
RESULT: 104
